Cited source for all entries: paper PMC12164071

Experiment: Human cell viability assay (resazurin)
Conditions: pCC50 (HepG2), HepG2, 48 hours, errors SD, N ≥ 3
Entries whose CC50 at 48 h is below 5 µM take Criterion met; entries at or above 5 µM take Criterion not met.

Worked examples follow.
>>> group_label("CCN(CC)Cc1ccc(OC)c(-c2cc3c(-c4ccc(C(=O)O)c(C(C)C)c4)ccnc3[nH]2)c1 [Compound 1, TCMDC-135051, reference compound]")
"Criterion met"
>>> group_label("CCN(CC)Cc1ccc(OC)c(-c2cc3c(-c4ccc(O)c(C=O)c4)ccnc3[nH]2)c1 [Compound 4]")
"Criterion not met"
>>> group_label("C#Cc1ccc(-c2c[nH]c3ncc(-c4cc(CN(CC)CC)ccc4OC)cc23)cc1C=O [Compound 9]")
"Criterion not met"
>>> group_label("CCN(CC)Cc1ccc(OC)c(-c2cnc3[nH]cc(-c4ccc(O)c(C=O)c4)c3c2)c1 [Compound 5]")
"Criterion met"

Now turn to the next compound.
Req: Strictly below 5 µM in CC50 at 48 h? C#Cc1ccc(-c2ccnc3[nH]c(-c4cc(CN(CC)CC)ccc4OC)cc23)cc1C=O [Compound 8]
Resp: Criterion not met
